Test system: HFF
ASSAY PROCEDURE: Cytotoxicity against HFF cells assessed as cell viability incubated for 168 hrs by MTS-based Cell Titer assay
Assay type: toxicity
TEST SETTINGS: human
MEASURED ENDPOINT: CC50

{"CHEM SMILES": "O=C(O)c1nc(-c2cccs2)nc(O)c1O", "MEASURED ENDPOINT": "CC50", "RECORDED VALUE": "> 100 µM"}

###

Recorded IC50 values for a group of compounds are listed next.
SYSTEM: Tripartite terminase subunit 3 (Human betaherpesvirus 5)
Sequence (P16732 whole entry): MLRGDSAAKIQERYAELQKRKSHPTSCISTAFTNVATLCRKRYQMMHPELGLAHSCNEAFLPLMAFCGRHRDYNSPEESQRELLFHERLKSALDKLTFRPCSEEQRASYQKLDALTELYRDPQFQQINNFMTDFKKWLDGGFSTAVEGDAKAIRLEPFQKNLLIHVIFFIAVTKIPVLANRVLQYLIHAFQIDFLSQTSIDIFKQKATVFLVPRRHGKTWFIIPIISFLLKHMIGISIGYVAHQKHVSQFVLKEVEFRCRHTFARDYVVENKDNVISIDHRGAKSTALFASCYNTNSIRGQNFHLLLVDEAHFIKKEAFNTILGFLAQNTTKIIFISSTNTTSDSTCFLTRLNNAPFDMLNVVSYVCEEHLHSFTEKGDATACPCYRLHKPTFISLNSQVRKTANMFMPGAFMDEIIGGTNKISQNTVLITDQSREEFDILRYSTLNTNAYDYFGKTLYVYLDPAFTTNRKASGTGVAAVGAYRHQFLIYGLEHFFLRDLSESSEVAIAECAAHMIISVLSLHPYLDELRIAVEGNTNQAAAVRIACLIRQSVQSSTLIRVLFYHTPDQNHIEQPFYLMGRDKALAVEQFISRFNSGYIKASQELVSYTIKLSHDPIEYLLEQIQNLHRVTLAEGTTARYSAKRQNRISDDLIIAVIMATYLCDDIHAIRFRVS
MEASURED ENDPOINT: IC50

{"CHEM SMILES": "O=C(O)c1nc(-c2ccsc2)nc(O)c1O", "RECORDED VALUE": "2700 nM"}
{"CHEM SMILES": "O=C(O)c1nc(Cc2ccsc2)[nH]c(=O)c1O", "RECORDED VALUE": "2400 nM"}
{"CHEM SMILES": "Cc1ccc(Cc2nc(C(=O)O)c(O)c(=O)[nH]2)cc1", "RECORDED VALUE": "920 nM"}
{"CHEM SMILES": "O=C(O)c1nc(Cc2ccc(F)c(F)c2)[nH]c(=O)c1O", "RECORDED VALUE": "870 nM"}

###

SYSTEM: Tripartite terminase subunit 3 (Human betaherpesvirus 5, UniProt P16732)
pIC50: −log10 of the molar value.
Recorded pIC50 values for a group of compounds are listed next.

{"CHEM SMILES": "O=C(NCc1ccc(F)c(F)c1)c1nc(-c2cccs2)[nH]c(=O)c1O", "pIC50": 6.10}
{"CHEM SMILES": "O=C(O)c1nc(Cc2ccc(F)cc2)[nH]c(=O)c1O", "pIC50": 6.13}
{"CHEM SMILES": "COC(=O)c1nc(Cc2ccc(F)cc2F)[nH]c(=O)c1O", "pIC50": 6.12}
{"CHEM SMILES": "O=C(NCc1ccc(F)cc1)c1nc(-c2cccs2)nc(O)c1O", "pIC50": 6.15}
{"CHEM SMILES": "COC(=O)c1nc(-c2ccccc2)[nH]c(=O)c1O", "pIC50": 5.96}
{"CHEM SMILES": "COC(=O)c1nc(-c2ccc(-c3ccccc3)cc2)[nH]c(=O)c1O", "pIC50": 6.11}
{"CHEM SMILES": "COC(=O)c1nc(-c2ccco2)[nH]c(=O)c1O", "pIC50": 5.52}
{"CHEM SMILES": "O=C(O)c1nc(-c2ccc(F)cc2)[nH]c(=O)c1O", "pIC50": 6.27}
{"CHEM SMILES": "COC(=O)c1nc(-c2ccc(F)cc2)[nH]c(=O)c1O", "pIC50": 6.07}
{"CHEM SMILES": "O=C(NCc1ccc(Cl)cc1)c1nc(-c2cccs2)nc(O)c1O", "pIC50": 5.89}
{"CHEM SMILES": "O=C(NCc1ccc(C(F)(F)F)cc1)c1nc(-c2cccs2)[nH]c(=O)c1O", "pIC50": 5.52}
{"CHEM SMILES": "O=C(O)c1nc(Cc2cccs2)[nH]c(=O)c1O", "pIC50": 5.77}
{"CHEM SMILES": "COC(=O)c1nc(Cc2ccc(Cl)c(Cl)c2)[nH]c(=O)c1O", "pIC50": 5.68}
{"CHEM SMILES": "COc1ccc(CNC(=O)c2nc(C)[nH]c(=O)c2O)cc1", "pIC50": 6.23}
{"CHEM SMILES": "O=C(O)c1nc(Cc2ccc(Cl)cc2Cl)[nH]c(=O)c1O", "pIC50": 5.42}
{"CHEM SMILES": "O=C(O)c1nc(-c2ccc(-c3ccccc3)cc2)[nH]c(=O)c1O", "pIC50": 5.82}
{"CHEM SMILES": "COC(=O)c1nc(-c2cccs2)nc(O)c1O", "pIC50": 6.06}
{"CHEM SMILES": "Cc1ccsc1-c1nc(O)c(O)c(C(=O)O)n1", "pIC50": 5.85}
{"CHEM SMILES": "O=C(O)c1nc(Cc2ccc(F)cc2F)[nH]c(=O)c1O", "pIC50": 5.85}
{"CHEM SMILES": "Cc1nc(C(=O)O)c(O)c(=O)[nH]1", "pIC50": 5.68}
{"CHEM SMILES": "Cc1nc(C(=O)NCc2ccc(Cl)c(Cl)c2)c(O)c(=O)[nH]1", "pIC50": 5.55}
{"CHEM SMILES": "Cc1ccc(CNC(=O)c2nc(-c3cccs3)nc(O)c2O)cc1", "pIC50": 5.72}
{"CHEM SMILES": "COC(=O)c1nc(Cc2ccc(Cl)cc2Cl)[nH]c(=O)c1O", "pIC50": 5.24}
{"CHEM SMILES": "O=C(O)c1nc(Cc2ccc(Cl)c(Cl)c2)nc(O)c1O", "pIC50": 6.17}

###

Recorded solubility thermodynamic at 72 h values for a group of compounds are listed next.
ASSAY PROCEDURE: Aqueous solubility of the compound in DPBS at pH 7.2 incubated for 72 hrs by LC-MS/MS analysis
Format: physicochemical
MEASURED ENDPOINT: solubility thermodynamic at 72 h (µM)

{"CHEM SMILES": "O=C(O)c1nc(-c2cccs2)nc(O)c1O", "MEASURED ENDPOINT": "solubility thermodynamic at 72 h", "MEASUREMENT UNITS": "µM", "LIMIT SIGN": "=", "RECORDED VALUE": 1480}
{"CHEM SMILES": "O=C(O)c1nc(Cc2ccc(Cl)c(Cl)c2)nc(O)c1O", "MEASURED ENDPOINT": "solubility thermodynamic at 72 h", "MEASUREMENT UNITS": "µM", "LIMIT SIGN": "≥", "RECORDED VALUE": 3170}

###

ASSAY PROCEDURE: Stability of compound in CD-1 mouse plasma as compound remaining measured for 6 hrs by LC-MS/MS analysis
Type: ADME, cell-free
TEST SETTINGS: read-out: Stability
Recorded remaining at 6 h values for a group of molecules are listed next.
MEASURED ENDPOINT: remaining at 6 h

{"CHEM SMILES": "O=C(O)c1nc(Cc2ccc(Cl)c(Cl)c2)nc(O)c1O", "MEASURED ENDPOINT": "remaining at 6 h", "RECORDED VALUE": "> 94%"}
{"CHEM SMILES": "O=C(O)c1nc(-c2cccs2)nc(O)c1O", "MEASURED ENDPOINT": "remaining at 6 h", "RECORDED VALUE": "> 94%"}

###

ASSAY PROCEDURE: Apparent permeability coefficient of the compound incubated for 5 hrs by LC-MS/MS analysis based PAMPA method
Format: ADME

{"CHEM SMILES": "COC(=O)c1nc(-c2cccs2)nc(O)c1O", "permeability": "0.9 10^-6 cm/s"}
{"CHEM SMILES": "COC(=O)c1nc(Cc2ccc(Cl)c(Cl)c2)[nH]c(=O)c1O", "permeability": "3.1 10^-6 cm/s"}
{"CHEM SMILES": "COc1ccc(CNC(=O)c2nc(C)[nH]c(=O)c2O)cc1", "permeability": "12.4 10^-6 cm/s"}
{"CHEM SMILES": "O=C(O)c1nc(-c2ccc(-c3ccccc3)cc2)[nH]c(=O)c1O", "permeability": "0.06 10^-6 cm/s"}
{"CHEM SMILES": "Cc1ccc(Cc2nc(C(=O)O)c(O)c(=O)[nH]2)cc1", "permeability": "0.07 10^-6 cm/s"}
{"CHEM SMILES": "O=C(O)c1nc(Cc2ccc(Cl)c(Cl)c2)nc(O)c1O", "permeability": "0.05 10^-6 cm/s"}

Reference source: ChEMBL document CHEMBL5154836
